Hey, just so you know, these numbers are from PubChem BioAssay (NCI).

- Tested on: HOP-62 NSCLC
- Experiment: NCI tumour cell line growth inhibition, 48 h
Assign TGI to each entry below.

Field: example entries. Status: answers known.
N#C/C(=C\c1ccc(CP(=O)(O)O)cc1)C(N)=O ... > 100 µM
O=C1C(=O)c2ccc(Br)cc2-c2cc(Br)ccc21 ... > 45.6 µM
COc1ccc(-c2cc3cccc(OC)c3c(=O)o2)cc1OC ... > 100 µM

Next compound, please.
Record request: TGI value, item CCOC(=O)CC(C)C(C#N)(OP1(=O)OC(c2ccccc2)C(C)N1C)c1ccccc1 (centres undefined)
> 100 µM

* * *

- System: SNB-75 CNS
- Experiment: NCI tumour cell line growth inhibition, 48 h
Result type: TGI

Field: example entries. Status: answers known.
CCOc1ccc(NC(=O)Nc2cc(C(C)C)ccc2C)cc1 ... 10.2 µM
Cc1c(Cl)ccc2c1NC(=O)C2(O)CC(=O)c1ccc(Cl)cc1Cl (stereo not drawn) ... > 41.3 µM

Next compound, please.
Record request: TGI value, item `CN1CC(c2ccccc2)=Cc2c1ccc(N)c2N=N`
> 100 µM
